All values here come from patent US20250066369A1.

Tested on: IL-1β release upon NLRP3 activation in peripheral blood mononuclear cells (PBMC)
Experiment: PBMC IC50 determination assay: inhibition of IL-1β release upon NLRP3 activation
Type: cell-based
Conditions: PBMC, PBMC primed with LPS 3 h, compound 30 min, stimulated with ATP (5 mM) or nigericin (10 μM) 1 h; IL-1β by ELISA (Protocol A) or HTRF (Protocol B)
pIC50: −log10 of the molar value.
readoutLabel: pIC50

1) CCNc1cc2c(=O)n(CC(=O)Nc3ncccn3)nc(C(C)C)c2o1
6.00 to 7.00
2) CC(C)c1nn(CC(=O)Nc2ncc(F)cn2)c(=O)c2ccc(C3CC3)nc12
6.00 to 7.00
3) CC(C)c1nn(CC(=O)Nc2ncccn2)c(=O)c2sc(NCC(F)(F)F)cc12
5.52 to 6.00
4) CC(C)c1nn(C2(C(=O)Nc3ncccn3)CC2)c(=O)c2cn(C(C)C)nc12
5.52 to 6.00

###

System: IL-1β release upon NLRP3 activation in peripheral blood mononuclear cells (PBMC)
Test: PBMC IC50 determination assay: inhibition of IL-1β release upon NLRP3 activation
Type: cell-based
Conditions: PBMC, PBMC primed with LPS 3 h, compound 30 min, stimulated with ATP (5 mM) or nigericin (10 μM) 1 h; IL-1β by ELISA (Protocol A) or HTRF (Protocol B)
Recorded IC50 values for a group of molecules are listed next.
readoutLabel: IC50

1) CCOc1cc2c(C(C)C)nn(CC(=O)Nc3ncccn3)c(=O)c2s1
1 to 3 µM
2) CCn1cc2c(=O)n(CC(=O)Nc3ncc(F)cn3)nc(C(C)C)c2n1
0.1 to 1 µM
3) Cc1cnc(NC(=O)Cn2nc(C(C)C)c3nn(C(C)C)cc3c2=O)nc1
0.1 to 1 µM
4) [2H]C([2H])([2H])Nc1cc2c(C(C)C)nn(CC(=O)Nc3ncccn3)c(=O)c2s1
≤ 0.1 µM

###

Test system: IL-1β release upon NLRP3 activation in peripheral blood mononuclear cells (PBMC)
Assay: PBMC IC50 determination assay: inhibition of IL-1β release upon NLRP3 activation
Assay type: cell-based
Conditions: PBMC, PBMC primed with LPS 3 h, compound 30 min, stimulated with ATP (5 mM) or nigericin (10 μM) 1 h; IL-1β by ELISA (Protocol A) or HTRF (Protocol B)
pIC50: −log10 of the molar value.
Below: a set of entries, each annotated with reported pIC50.
readoutLabel: pIC50

1. CC(C)c1nn(CC(=O)Nc2ncccn2)c(=O)c2sc(Br)cc12 [Compound 64]
6.00 to 7.00
2. CCc1nn(CC(=O)Nc2ncccn2)c(=O)c2sc(C)cc12 [Compound 116]
5.52 to 6.00
3. Cc1nn(CC(=O)N[C@@H]2CCCN(C)C2)c(=O)c2ccc(C3CC3)nc12 [Compound 46]
5.52 to 6.00
4. CCn1cc2c(=O)n(CC(=O)Nc3ncccn3)nc(CF)c2n1 [Compound 40]
5.52 to 6.00
5. CC(C)c1nn(CC(=O)Nc2ncc(F)cn2)c(=O)c2cn(C(C)C)nc12 [Compound 15]
6.00 to 7.00
6. CC(C)c1nn(CC(=O)Nc2ncccn2)c(=O)c2sc(NCC(F)F)cc12 [Compound 95]
6.00 to 7.00
7. CCc1nn(CC(=O)Nc2ncccn2)c(=O)c2sc(NC)cc12 [Compound 114]
6.00 to 7.00
8. CCNc1cc2c(C(C)C)nn(CC(=O)Nc3ncccn3)c(=O)c2s1 [Compound 78]
≥ 7.00
9. CCc1cc2c(C(C)C)nn(CC(=O)N[C@H]3C[C@@](C)(O)C3)c(=O)c2s1 [Compound 69]
6.00 to 7.00
